Target: hCA XII (Homo sapiens, UniProt O43570)
Construct: gene CA12; recombinant, obtained in-house
Sequence (O43570 25-354): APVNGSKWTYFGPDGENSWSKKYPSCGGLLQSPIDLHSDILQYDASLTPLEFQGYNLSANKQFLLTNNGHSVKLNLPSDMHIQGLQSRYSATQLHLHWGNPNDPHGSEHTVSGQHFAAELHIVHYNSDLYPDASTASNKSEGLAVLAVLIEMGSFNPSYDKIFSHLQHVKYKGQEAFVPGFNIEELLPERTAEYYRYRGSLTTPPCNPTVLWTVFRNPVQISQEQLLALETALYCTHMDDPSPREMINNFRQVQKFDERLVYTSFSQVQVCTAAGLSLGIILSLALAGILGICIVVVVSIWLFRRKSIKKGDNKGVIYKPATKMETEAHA
Assay: stopped-flow CO2 hydrase assay
Format: biochemical
Details: read-out: KI^* (nM) / hCA II
# Ki values compiled below

> print(dat)
                                   compound                          assayed.system      result
1  CCCc1cc2c(=O)c(-c3ccc4c(c3)OCCO4)coc2cc1OCc1cc(=O)oc2cc(C)cc(C)c12  hCA XII (Homo sapiens, UniProt O43570)  > 10000 nM
2  Cc1c(O)c(CN(C)C)cc2c(-c3cc4ccccc4oc3=O)cc(=O)oc12  hCA XII (Homo sapiens, UniProt O43570)  > 10000 nM

Param item = COc1cc(C2CC(=O)Oc3ccc(C(C)=O)c(O)c32)ccc1O (racemic) ; retrieve measured Ki.
> 10000 nM

* * *

Target: hCA IX (Homo sapiens)
Construct: gene CA9; recombinant, obtained in-house
Assay: stopped-flow CO2 hydrase assay
Type: biochemical
Conditions: CO2 […], […] Hepes pH […] Na2SO4, […] h preincubation at room temperature (prodrug inhibitors)
ASSAY_READOUT: Ki (nM)
Numeric only. Scale: nM

Param item = CC(=NO)c1c(OCc2ccc(Cl)cc2)ccc2c(C)cc(=O)oc12 [compound 1] ; retrieve measured Ki.
49.3

* * *

# pKi values compiled below
Target: hCA I (Homo sapiens, UniProt P00915)
Construct: gene CA1; recombinant, obtained in-house; cytosolic isoform
Sequence (P00915 2-261): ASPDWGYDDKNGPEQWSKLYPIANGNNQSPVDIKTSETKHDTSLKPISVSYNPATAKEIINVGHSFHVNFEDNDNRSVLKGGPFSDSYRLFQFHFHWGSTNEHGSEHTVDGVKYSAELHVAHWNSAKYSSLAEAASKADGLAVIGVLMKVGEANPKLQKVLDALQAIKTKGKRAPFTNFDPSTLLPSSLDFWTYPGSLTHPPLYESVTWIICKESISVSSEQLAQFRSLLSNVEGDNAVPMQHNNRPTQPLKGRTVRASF
Test: stopped-flow CO2 hydrase assay
Format: biochemical
pKi: −log10 of the molar value.

# example entries with known answers
> print(dat)
                                   molecule  assay.readout  result
1  Cc1c(O)c(CN(C)C)cc2c(-c3cc4ccccc4oc3=O)cc(=O)oc12 [compound 2]            pKi  < 5.00
2  CC(=O)c1ccc2c(c1O)C(c1ccccc1OCc1ccccn1)CC(=O)O2 (racemic) [compound 7]            pKi  < 5.00

Param item = O=C(NN1C(=O)/C(=C/C2=Cc3ccccc3OC2)SC1=S)c1cccnc1 [compound 12, 2H-chromene 12] ; retrieve measured pKi.
< 5.00

* * *

Biological target: hCA IX (Homo sapiens)
Construct: gene CA9; recombinant, obtained in-house
Experiment: stopped-flow CO2 hydrase assay
Assay type: biochemical
ASSAY_READOUT: Ki (nM)

# example entries with known answers
> print(dat)
                                   molecule  readout.number
1  O=c1cc(-c2cc3ccc(O)cc3oc2=O)c2ccc(O)c(O)c2o1 [compound 3]             133
2  COc1cc(C2CC(=O)Oc3ccc(C(C)=O)c(O)c32)ccc1O (racemic) [compound 6]             189
3  CCOC(=O)CC(C1=Cc2ccccc2OC1)c1oc(CO)cc(=O)c1O (centres unmarked) [compound 4]             243
4  COc1ccc(C2CC(=O)Oc3ccc(C(C)=O)c(O)c32)cc1OCCc1ccc2c(c1)CCO2 (racemic) [compound 5]             172
5  CCCc1cc2c(=O)c(-c3ccc4c(c3)OCCO4)coc2cc1OCc1cc(=O)oc2cc(C)cc(C)c12 [compound 9, coumarin 9]             171

I = COc1ccc2occ(C3CC(=O)Oc4ccc(C(C)=O)c(O)c43)c(=O)c2c1 (racemic) [compound 8]
II = Cc1c(O)c(CN(C)C)cc2c(-c3cc4ccccc4oc3=O)cc(=O)oc12 [compound 2]
III = Cc1cc(=O)oc2c(C)c(O)c(C(=O)/C=C/N(C)C)cc12 [compound 10, coumarin 10]
IV = O=C(Nc1ccc2oc(=O)ccc2c1)[C@@H]1CSC2c3ccccc3C(=O)N21 (some centres unmarked) [compound 11, coumarin 11]
Arrange items by their Ki values in increasing order. When ranking, write the labels in the order the request describes.
IV, III, II, I

P = CC(=O)c1ccc2c(c1O)C(c1ccccc1OCc1ccccn1)CC(=O)O2 (racemic) [compound 7]
Q = O=C(NN1C(=O)/C(=C/C2=Cc3ccccc3OC2)SC1=S)c1cccnc1 [compound 12, 2H-chromene 12]
Lab note: check whether P or Q shows the higher recorded Ki. # respond with the chosen item's label
Q
(Q: 241 nM, P: 139 nM)

* * *

Target: hCA II (Homo sapiens)
Construct: gene CA2; recombinant, obtained in-house; cytosolic isoform
Assay: stopped-flow CO2 hydrase assay
Type: biochemical
# Ki values compiled below

# example entries with known answers
> print(dat)
                                   molecule      result
1  CCOC(=O)CC(C1=Cc2ccccc2OC1)c1oc(CO)cc(=O)c1O (stereo not drawn)  > 10000 nM
2  COc1ccc2occ(C3CC(=O)Oc4ccc(C(C)=O)c(O)c43)c(=O)c2c1 (racemic)  > 10000 nM

Lookup: Ki / hCA II (Homo sapiens) / Cc1c(O)c(CN(C)C)cc2c(-c3cc4ccccc4oc3=O)cc(=O)oc12
> 10000 nM

* * *

Target: hCA XII (Homo sapiens, UniProt O43570)
Construct: gene CA12; recombinant, obtained in-house
Assay: stopped-flow CO2 hydrase assay
Type: biochemical
Conditions: read-out: KI^* (nM) / hCAXII
ASSAY_READOUT: Ki (nM)

> print(dat)
                                   molecule                          assayed.system  readout.number
1  CCOC(=O)CC(C1=Cc2ccccc2OC1)c1oc(CO)cc(=O)c1O (stereo not shown) [compound 4]  hCA XII (Homo sapiens, UniProt O43570)             467
2  O=C(NN1C(=O)/C(=C/C2=Cc3ccccc3OC2)SC1=S)c1cccnc1 [compound 12, 2H-chromene 12]  hCA XII (Homo sapiens, UniProt O43570)             432
3  O=C(Nc1ccc2oc(=O)ccc2c1)[C@@H]1CSC2c3ccccc3C(=O)N21 (stereo partly shown) [compound 11, coumarin 11]  hCA XII (Homo sapiens, UniProt O43570)             591
4  Cc1cc(=O)oc2c(C)c(O)c(C(=O)/C=C/N(C)C)cc12 [compound 10, coumarin 10]  hCA XII (Homo sapiens, UniProt O43570)             604

* * *

Target: hCA I (Homo sapiens)
Construct: gene CA1; recombinant, obtained in-house; cytosolic isoform
Assay: stopped-flow CO2 hydrase assay
Assay type: biochemical
Conditions: CO2 […], […] Hepes pH […] Na2SO4, […] h preincubation at room temperature (prodrug inhibitors)
pKi: −log10 of the molar value.
ASSAY_READOUT: pKi

Param item = CC(=NO)c1c(OCc2ccc(Cl)cc2)ccc2c(C)cc(=O)oc12 ; retrieve measured pKi.
< 5.00

* * *

Target: hCA II (Homo sapiens, UniProt P00918)
Construct: gene CA2; recombinant, obtained in-house; cytosolic isoform
Assay: stopped-flow CO2 hydrase assay
Assay type: biochemical
Settings: CO2 […], […] Hepes pH […] Na2SO4, […] h preincubation at room temperature (prodrug inhibitors)
Source text: stopped-flow CO2 hydrase assay on hCA II
ASSAY_READOUT: Ki

Param item = CC(=NO)c1c(OCc2ccc(Cl)cc2)ccc2c(C)cc(=O)oc12 ; retrieve measured Ki.
> 10000 nM
